Tested on: Wolbachia pipientis
assay procedure: Anti-Wolbachia Cell-Based Screen
Type: functional
Design: scale not given: in the data most compounds retested in dose-response had high values
test settings: 5 µM
The campaign covered roughly 48,000 compounds. About 13,000 (27%) showed an effect of 50% or more. This is one part of the list.
quantity kind: Percent Effect (%)

{"compound": "COc1cccc([C@H]2CN(C(=O)c3cc(C)on3)C[C@@H]2N)c1", "units of measure": "%", "endpoint result": -12.5}
{"compound": "CC(NCc1ccc(Cl)o1)c1nnc2n1CCCC2 (centres undefined)", "units of measure": "%", "endpoint result": -1.685}
{"compound": "Cc1cc(C(=O)N2CCN(c3nc4ccccc4s3)CC2)no1", "units of measure": "%", "endpoint result": 133.9}
{"compound": "CN(Cc1nc(C(C)(C)C)no1)C1CCS(=O)(=O)C1 (centres undefined)", "units of measure": "%", "endpoint result": -19.08}
{"compound": "Cc1ccc(CNC(C)c2nnc3n2CCCC3)o1 (centres undefined)", "units of measure": "%", "endpoint result": -12.78}
{"compound": "Cc1cc(NC(=O)N2CCN(c3nc(C)c(C)s3)CC2)no1", "units of measure": "%", "endpoint result": -7.587}
{"compound": "CCCS(=O)(=O)N1Cc2c(ncn2Cc2ccccc2)C[C@H]1C(=O)OC", "units of measure": "%", "endpoint result": -4.606}
{"compound": "CC(=O)c1cccc(NS(=O)(=O)c2cc(C)c(C(=O)O)s2)c1", "units of measure": "%", "endpoint result": 6.094}
{"compound": "CN(CCc1ccc2c(c1)CCO2)C1CCS(=O)(=O)CC1", "units of measure": "%", "endpoint result": -8.2}
{"compound": "CC(C)(C)OC(=O)N1CCCc2ccc(NCc3ncc[nH]3)cc21", "units of measure": "%", "endpoint result": 1.363}
{"compound": "Cc1ccoc1CNC(C)c1nnc2n1CCCC2 (centres undefined)", "units of measure": "%", "endpoint result": -17.53}
{"compound": "Cc1cc(C2CCCN(C(=O)COc3cccc(F)c3)C2)n[nH]1 (centres undefined)", "units of measure": "%", "endpoint result": -5.532}
{"compound": "CCN1CCN(C(=O)c2ccc3c(c2)NC(=O)CN3)[C@H]2CS(=O)(=O)C[C@H]21", "units of measure": "%", "endpoint result": 7.083}
{"compound": "CN(Cc1ncnn1C1Cc2ccccc2C1)C1CCS(=O)(=O)C1 (centres undefined)", "units of measure": "%", "endpoint result": 124.4}
